Target: T1, lactate dehydrogenase (LDH)
T1 construct: Coated at 500 ng/well as non-specific target; also called LDH polypeptide
Assay: phage ELISA
reported.endpoint: LDH (OD)
Respond numerically; units are OD and should not be typed.

Please look up its LDH (OD): DGI-2-40F-3-D1044 (peptide) peptide: DRVARLATPTAGTMAAGSLGYERTVGCDSQDWFRCVVEGLAAAGAPVPYPDPLEPRP
1.3

Would you kindly repeat that for DGI-2-40F-4-F97 (peptide) peptide: QVGGMTQVGATVLSVVTGRGSCDGEDAWYPPGVTVGLGLCAAAGAPVPYPDPLEPRP ?
1

Subsequent entry: RISVGQCGTSRCGGGRRGGGAAAGAPVPYPDPLEPRP [DGI-2-20F-PP-D1]
1.1

Another binder: RRILPWSFPGCGRMCAAAGAPVPYPDPLEPRP [DGJ-2-20R-3-A10]
1.1

Try the binder SWACGLLWPGECGSQVARRGAAAGAPVPYPDPLEPRP [DGI-2-20R-3-D127]
1

For SVSGGGVFGTGGRVRHQVSGAAAGAPVPYPDPLEPRP [DGI-2-20F-PP-C5] then?
0.9

Let us now turn to LPQSRWLSEAWASWVDGVVDAAAGAPVPYPDPLEPRP [DGI-2-20F-4-F9]
1

Would you mind doing RGVNSDMPRLYICRADGQGQAAAGAPVPYPDPLEPRP [DGI-2-20F-PP-H6] as well?
0.8

Same question for PVYRVAMCRISVGCSAGAWFAAAGAPVPYPDPLEPRP [DGI-2-20F-PP-C12] please.
0.9

Also check SLECWAMPGMVVRLVGCDGPAAAGAPVPYPDPLEPRP [DGI-2-20R-4-H112]
1.1

Next binder up: RKGWGVFCIPGLRFCDWSDPAAAGAPVPYPDPLEPRP [DGI-2-20R-3-B4]
1

Repeat with FRMWVQSCFWGQPGTGCGEGAAAGAPVPYPDPLEPRP [DGI-2-20R-3-D2]
1.1

Would you kindly repeat that for GGSLPVKSGQLVTCCTSKGGAAAGAPVPYPDPLEPRP [DGI-2-20F-PP-F5] ?
0.9
